Target: human JAK1 (a.a. 837-1142) (Homo sapiens)
Construct: human JAK1 (a.a. 837-1142); His tag (N); made in house; host or cells: insect cells (baculovirus)
Sequence (P23458 849-1154): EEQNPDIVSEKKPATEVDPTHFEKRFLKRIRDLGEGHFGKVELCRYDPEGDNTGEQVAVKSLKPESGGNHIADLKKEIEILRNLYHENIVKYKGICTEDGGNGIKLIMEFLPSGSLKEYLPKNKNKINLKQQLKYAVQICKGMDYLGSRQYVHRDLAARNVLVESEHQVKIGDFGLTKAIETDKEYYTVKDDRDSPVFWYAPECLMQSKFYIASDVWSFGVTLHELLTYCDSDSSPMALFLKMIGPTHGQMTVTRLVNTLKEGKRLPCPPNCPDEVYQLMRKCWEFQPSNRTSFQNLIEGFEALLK
Assay: In vitro JAK kinase assay (HTRF, phosphorylation of a biotinylated peptide), JAK1
Format: biochemical
Conditions: Table B1; read-out: JAK1 IC50
Structures can show the parent of a compound that is named as a salt.
# note: exactly 6 nM is not below, so it is NOT MET; use MET for IC50 strictly under it

[
  {
    "compound": "O=C(NCCNS(=O)(=O)c1ccccc1)Nc1ccc2cc1CCc1cccc(c1)Nc1ncc(Cl)c(n1)N2 [Example B329, trifluoroacetate]",
    "tgt": "human JAK1 (a.a. 837-1142) (Homo sapiens)",
    "label": "MET"
  },
  {
    "compound": "Cc1noc(C)c1NC(=O)Nc1ccc2cc1CCc1cccc(c1)Nc1ncc(Cl)c(n1)N2 [Example B94, trifluoroacetate]",
    "tgt": "human JAK1 (a.a. 837-1142) (Homo sapiens)",
    "label": "MET"
  },
  {
    "compound": "O=C(Nc1ccc2cc1CCc1cccc(c1)Nc1ncc(Cl)c(n1)N2)C1CCCC1 [Example B60, trifluoroacetate]",
    "tgt": "human JAK1 (a.a. 837-1142) (Homo sapiens)",
    "label": "NOT MET"
  },
  {
    "compound": "Cc1cnc(NC(=O)Nc2ccc3cc2CCc2cccc(c2)Nc2ncc(Cl)c(n2)N3)s1 [Example B248, trifluoroacetate]",
    "tgt": "human JAK1 (a.a. 837-1142) (Homo sapiens)",
    "label": "NOT MET"
  },
  {
    "compound": "CCc1ccccc1NC(=O)Nc1ccc2cc1CCc1cccc(c1)Nc1ncc(Cl)c(n1)N2 [Example B97, trifluoroacetate]",
    "tgt": "human JAK1 (a.a. 837-1142) (Homo sapiens)",
    "label": "MET"
  },
  {
    "compound": "O=C(Nc1ccc2cc1CCc1cccc(c1)Nc1ncc(Cl)c(n1)N2)N1CCN(c2ccccn2)CC1 [Example B290, bis(trifluoroacetate)]",
    "tgt": "human JAK1 (a.a. 837-1142) (Homo sapiens)",
    "label": "NOT MET"
  },
  {
    "compound": "O=C(Nc1ccc2cc1CCc1cccc(c1)Nc1ncc(Cl)c(n1)N2)N[C@@H]1CCN(C(=O)c2ccccc2)C1 [Example B176, trifluoroacetate]",
    "tgt": "human JAK1 (a.a. 837-1142) (Homo sapiens)",
    "label": "MET"
  },
  {
    "compound": "Cc1cc(C(=O)N2CC[C@H](NC(=O)Nc3ccc4cc3CCc3cncc(c3)Nc3ncc(Cl)c(n3)N4)C2)no1 [Example B265, bis(trifluoroacetate)]",
    "tgt": "human JAK1 (a.a. 837-1142) (Homo sapiens)",
    "label": "NOT MET"
  },
  {
    "compound": "CCNC(=O)Nc1ccc2cc1CCc1cccc(c1)Nc1ncc(Cl)c(n1)N2 [Example B115, trifluoroacetate]",
    "tgt": "human JAK1 (a.a. 837-1142) (Homo sapiens)",
    "label": "MET"
  },
  {
    "compound": "O=C(Nc1ccc2cc1CCc1cccc(c1)Nc1ncc(Cl)c(n1)N2)c1cccnc1Cl [Example B70, bis(trifluoroacetate)]",
    "tgt": "human JAK1 (a.a. 837-1142) (Homo sapiens)",
    "label": "MET"
  },
  {
    "compound": "O=S(=O)(Nc1ccc2cc1CCc1cccc(c1)Nc1ncc(Cl)c(n1)N2)c1ccc(Cl)cc1 [Example B139, trifluoroacetate]",
    "tgt": "human JAK1 (a.a. 837-1142) (Homo sapiens)",
    "label": "MET"
  },
  {
    "compound": "O=C(Nc1cc2cc(c1)Nc1nc(ncc1Cl)Nc1cccc(c1)CC2)c1nc2ccccc2s1 [Example B204, trifluoroacetate]",
    "tgt": "human JAK1 (a.a. 837-1142) (Homo sapiens)",
    "label": "NOT MET"
  },
  {
    "compound": "O=C(Nc1ccc2cc1CCc1cccc(c1)Nc1ncc(Cl)c(n1)N2)c1cccc(C(F)(F)F)c1 [Example B76, trifluoroacetate]",
    "tgt": "human JAK1 (a.a. 837-1142) (Homo sapiens)",
    "label": "NOT MET"
  },
  {
    "compound": "O=C(Nc1cc2cc(c1)Nc1nc(ncc1Cl)Nc1cccc(c1)CC2)c1nccs1 [Example B209, trifluoroacetate]",
    "tgt": "human JAK1 (a.a. 837-1142) (Homo sapiens)",
    "label": "NOT MET"
  },
  {
    "compound": "CS(=O)(=O)Nc1ccc2cc1CCc1cccc(c1)Nc1ncc(Cl)c(n1)N2 [Example B140, trifluoroacetate]",
    "tgt": "human JAK1 (a.a. 837-1142) (Homo sapiens)",
    "label": "MET"
  },
  {
    "compound": "O=C(Nc1cc2cc(c1)Nc1nc(ncc1Cl)Nc1cccc(c1)CC2)c1ccno1 [Example B206, trifluoroacetate]",
    "tgt": "human JAK1 (a.a. 837-1142) (Homo sapiens)",
    "label": "NOT MET"
  },
  {
    "compound": "Clc1ccc(CN2CCN(Cc3cc4cc(c3)Nc3nc(ncc3Cl)Nc3cccc(c3)CC4)CC2)cc1 [Example B199, tris(trifluoroacetate)]",
    "tgt": "human JAK1 (a.a. 837-1142) (Homo sapiens)",
    "label": "MET"
  },
  {
    "compound": "Cc1cnc2nc1Nc1cccc(c1)/C=C\\c1cccc(c1)N2 [Example B1, trifluoroacetate]",
    "tgt": "human JAK1 (a.a. 837-1142) (Homo sapiens)",
    "label": "NOT MET"
  },
  {
    "compound": "CC(C)NC(=O)Nc1ccc2cc1CCc1cccc(c1)Nc1ncc(Cl)c(n1)N2 [Example B116, trifluoroacetate]",
    "tgt": "human JAK1 (a.a. 837-1142) (Homo sapiens)",
    "label": "MET"
  },
  {
    "compound": "CC1CN(C(=O)Nc2ccc3cc2CCc2cncc(c2)Nc2ncc(Cl)c(n2)N3)CCN1c1ccccc1 (stereo not drawn) [Example B320, tris(trifluoroacetate)]",
    "tgt": "human JAK1 (a.a. 837-1142) (Homo sapiens)",
    "label": "NOT MET"
  },
  {
    "compound": "O=C(Nc1ccc2cc1CCc1cncc(c1)Nc1ncc(Cl)c(n1)N2)N[C@H]1CCN(C(=O)c2ccn[nH]2)C1 [Example B268, bis(trifluoroacetate)]",
    "tgt": "human JAK1 (a.a. 837-1142) (Homo sapiens)",
    "label": "NOT MET"
  },
  {
    "compound": "Cc1noc(C)c1C(=O)Nc1ccc2cc1CCc1cccc(c1)Nc1ncc(Cl)c(n1)N2 [Example B40, trifluoroacetate]",
    "tgt": "human JAK1 (a.a. 837-1142) (Homo sapiens)",
    "label": "MET"
  },
  {
    "compound": "Cc1ccccc1S(=O)(=O)Nc1ccc2cc1CCc1cccc(c1)Nc1ncc(Cl)c(n1)N2 [Example B149, trifluoroacetate]",
    "tgt": "human JAK1 (a.a. 837-1142) (Homo sapiens)",
    "label": "MET"
  },
  {
    "compound": "O=C(Nc1ncc(Cl)s1)Nc1ccc2cc1CCc1cccc(c1)Nc1ncc(Cl)c(n1)N2 [Example B252, trifluoroacetate]",
    "tgt": "human JAK1 (a.a. 837-1142) (Homo sapiens)",
    "label": "NOT MET"
  },
  {
    "compound": "CC(C)C(=O)Nc1ccc2cc1CCc1cccc(c1)Nc1ncc(Cl)c(n1)N2 [Example B55, trifluoroacetate]",
    "tgt": "human JAK1 (a.a. 837-1142) (Homo sapiens)",
    "label": "NOT MET"
  }
]

* * *

Molecular target: human JAK3 (a.a. 781-1124) (Homo sapiens)
Construct: JAK3 (a.a. 781-1124); His tag (N); made in house; host or cells: insect cells (baculovirus)
Sequence (P52333 781-1124): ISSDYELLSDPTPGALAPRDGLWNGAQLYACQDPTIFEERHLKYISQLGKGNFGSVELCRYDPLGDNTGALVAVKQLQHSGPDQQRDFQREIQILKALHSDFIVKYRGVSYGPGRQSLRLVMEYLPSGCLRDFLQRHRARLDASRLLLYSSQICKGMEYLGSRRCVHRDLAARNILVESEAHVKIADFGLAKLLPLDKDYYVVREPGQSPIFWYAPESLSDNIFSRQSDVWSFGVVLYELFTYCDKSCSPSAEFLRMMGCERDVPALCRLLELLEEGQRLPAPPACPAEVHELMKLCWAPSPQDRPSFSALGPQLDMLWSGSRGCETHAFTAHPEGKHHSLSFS
Experiment: In vitro JAK kinase assay (HTRF, phosphorylation of a biotinylated peptide), JAK3
Assay type: biochemical
Conditions: Table B1
Where a name gives a salt, the structure may show the parent alone.
# note: exactly 30 nM is not below, so it is 0; use 1 for IC50 strictly under it

[
  {
    "compound": "O=C(O)c1cc2cc(c1)Nc1nc(ncc1Cl)Nc1cccc(c1)CC2 [Example B6, trifluoroacetate]",
    "label": 0
  },
  {
    "compound": "O=C(NO)Nc1ccc2cc1CCc1cccc(c1)Nc1ncc(Cl)c(n1)N2 [Example B324, trifluoroacetate]",
    "label": 1
  },
  {
    "compound": "NS(=O)(=O)N1CCC(NC(=O)Nc2ccc3cc2CCc2cccc(c2)Nc2ncc(Cl)c(n2)N3)CC1 [Example B183, trifluoroacetate]",
    "label": 1
  },
  {
    "compound": "O=C(Nc1ccc(Cl)nc1)Nc1ccc2cc1CCc1cccc(c1)Nc1ncc(Cl)c(n1)N2 [Example B121, bis(trifluoroacetate)]",
    "label": 0
  },
  {
    "compound": "COc1ccccc1NC(=O)Nc1ccc2cc1CCc1cccc(c1)Nc1ncc(Cl)c(n1)N2 [Example B102, trifluoroacetate]",
    "label": 0
  },
  {
    "compound": "CCCC(=O)Nc1ccc2cc1CCc1cccc(c1)Nc1ncc(Cl)c(n1)N2 [Example B56, trifluoroacetate]",
    "label": 1
  },
  {
    "compound": "Cc1cccc(NC(=O)Nc2ccc3cc2CCc2cccc(c2)Nc2ncc(Cl)c(n2)N3)c1 [Example B90, trifluoroacetate]",
    "label": 0
  }
]

FYI, the data here is from patent US8871753B2.
